src = PubChem BioAssay AID220

Test system: CD8F1 mice, subcutaneous mammary adenocarcinoma, T/C%
Assay: NCI In Vivo Anticancer Drug Screen. Data for tumor model Mammary Adenocarcinoma CD8F1 (subcutaneous) in CD8F1
Conditions: endpoint: median tumor weight (est.); dose: 12.5 mg/kg/injection; schedule: Q07DX005 (ip); vehicle: saline; higher = larger tumour
Results filed as inconclusive are left out.
Readout Name: T/C

CCCCCCCCCCCCCCCCP(=O)(OCCOCCCCCC)OCCOCCCCCC    85 % of control
CC[C@](O)(C(=O)O)c1cc2n(c(=O)c1CO)Cc1cc3ccccc3nc1-2    59 % of control
O=C(Nc1ccc(Cl)c(Cl)c1)Nc1c(Oc2ccc(Cl)c(Cl)c2)ccc(Cl)c1S(=O)(=O)O    123 % of control

Below are some compounds; for each one, tell me its T/C.
1. OCC1OC(n2cnc3c(Cl)ncnc32)C(O)C1O (stereo unspecified)
2. O=c1[nH]c(=O)n(C2CC(O)C(CO)O2)cc1F (stereo unspecified)
3. CN(C)CC(Cl)CCl (stereo unspecified)

90 % of control
97 % of control
92 % of control

====

Test system: CD8F1 mice, subcutaneous mammary adenocarcinoma, T/C%
Experiment: NCI In Vivo Anticancer Drug Screen. Data for tumor model Mammary Adenocarcinoma CD8F1 (subcutaneous) in CD8F1
Settings: endpoint: median tumor weight change; dose: 250.0 mg/kg/injection; schedule: Q01DX001 (ip); vehicle: saline with Tween-80; higher = larger tumour
Inconclusive results are not listed.
Answer each item with its documented T/C.

C[n+]1c(/C=N/NC(N)=S)ccc2ccccc21    77 % of control
C/C(=N\NC(N)=O)c1cccc(/C(C)=N/NC(N)=O)n1    48 % of control

Below are some molecules; for each one, tell me its T/C.
1. BrC[P+](CBr)(CBr)CBr
2. Cc1ccc(NC(=O)Oc2ccc(Br)cc2Br)c([N+](=O)[O-])c1
3. O=[N+]([O-])c1ccc(-n2[nH]nnc2=S)cc1
4. CCNC(C)(C)C(SSS)c1ccco1 (stereo unspecified)
5. CCCCOCN(COCCCC)C(C)Cc1ccccc1 (stereo unspecified)
6. NCC1CCC(C(=O)O)CC1 (stereo unspecified)
7. O=C(Nc1cccc2c(OC(=O)C(Cl)Cl)c(N=Nc3ccc(S(=O)(=O)Nc4nccs4)cc3)cc(N=Nc3ccc(S(=O)(=O)Nc4nccs4)cc3)c12)C(Cl)Cl (tested in a mixture with another compound)

1: 152 % of control; 2: 52 % of control; 3: 112 % of control; 4: 59 % of control; 5: 110 % of control; 6: 86 % of control; 7: 106 % of control

Below are some molecules; for each one, tell me its T/C.
1. COC1(OC)C2C=CC1CC2
2. O=[N+]([O-])c1ccc(N2CCOCC2)c2c1no[n+]2[O-]

107 % of control
43 % of control

====

Answer each item with its documented T/C.
Test system: CD8F1 mice, subcutaneous mammary adenocarcinoma, T/C%
Experiment: NCI In Vivo Anticancer Drug Screen. Data for tumor model Mammary Adenocarcinoma CD8F1 (subcutaneous) in CD8F1
Conditions: endpoint: median tumor weight (est.); dose: 1.0 mg/kg/injection; schedule: Q07DX005 (ip); vehicle: saline; higher = larger tumour
Inconclusive results are not listed.

S=P(N1CC1)(N1CC1)N1CC1    157 % of control
CCOC(OCC)C(=O)OCC(=O)[C@]1(O)Cc2c(O)c3c(c(O)c2[C@@H](OC2CC(N)C(O)C(C)O2)C1)C(=O)c1c(OC)cccc1C3=O (stereo partly drawn)    85 % of control

OC(C1CO1)C(O)C1CO1 (stereo not drawn) on CD8F1 mice, subcutaneous mammary adenocarcinoma, T/C% gives T/C = 28 % of control
